Below, each entry is listed alongside its reported % Bound in Plasma.
test: Measurements of human plasma protein binding; assay type: in vitro ADME
REPORTED METRIC: % Bound in Plasma (%)

> print(dat)
                                   compound  recorded.value
1  CCCOc1ccc(S(=O)(=O)N2CCN(CCO)CC2)cc1-c1nc2c(CCC)cn(CC)c2c(=O)[nH]1 [mirodenafil, reference compound]           98.94
2  CCCc1cn(C)c2c(=O)[nH]c(-c3cc(S(=O)(=O)N4CCC(CCO)CC4)ccc3OCC)nc12 [Compound 14]           99.43
3  CCCc1cn(C)c2c(=O)[nH]c(-c3cc(S(=O)(=O)N4CCC(CCO[N+](=O)[O-])CC4)ccc3OCC)nc12 [Compound 2c]           99.65
4  CCCOc1ccc(S(=O)(=O)N2CCC(CCO)CC2)cc1-c1nc2c(CCC)cn(CC)c2c(=O)[nH]1 [Compound 5]           99.87
5  CC(=O)CC(c1ccccc1)c1c(O)c2ccccc2oc1=O (stereo not shown) [Warfarin, reference compound]           97.28
6  CCCc1nn(C)c2c(=O)[nH]c(-c3cc(S(=O)(=O)N4CCN(C)CC4)ccc3OCC)nc12 [sildenafil, reference compound]           96.41
7  CCCOc1ccc(S(=O)(=O)N2CCC(CCO[N+](=O)[O-])CC2)cc1-c1nc2c(CCC)cn(CC)c2c(=O)[nH]1 [Compound 1b]           99.95
